Data provenance is patent US6001988.

Molecular target: T1, wheat germ agglutinin (WGA) (Triticum vulgare, UniProt P10968 P10968:27-197)
T1 sequence: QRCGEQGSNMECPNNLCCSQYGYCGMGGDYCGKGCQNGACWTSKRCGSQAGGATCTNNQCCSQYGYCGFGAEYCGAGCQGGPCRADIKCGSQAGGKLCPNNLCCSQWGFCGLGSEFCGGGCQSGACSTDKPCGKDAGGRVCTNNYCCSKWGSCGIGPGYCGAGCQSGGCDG
Test: filter; HBSS, room temp
Details: tags: free lectin, E Y Laboratories; label: 32P; hairpin
Exercise: state measured log10 of Kd for each of the binders provided.
Would you kindly interpret these values as log10 of Kd expressed in µM?

Could you share which log10 of Kd value was measured for 11.27 (ssRNA, 2'-NH2 all C and U) RNA: GGGAAAAGCGAAUCAUACACAAGACGAUGCGAGGCAAGAAAUGGAGUCGUUACGAACCCUCUUGCAGUGCGCGGCUCCGCCAGAGACCAACCGAGAA ?
-1.52

// same read-out, input: 11.32 (ssRNA, 2'-NH2 all C and U) RNA: GGGAAAAGCGAAUCAUACACAAGACGUGCGGAGCAAAUAGGGGAUCAUGGAGUCGUACGAACCGUUAUCGCGCUCCGCCAGAGACCAACCGAGAA
-0.56

// same read-out, input: 11.12 (ssRNA, 2'-NH2 all C and U) RNA: GGGAAAAGCGAAUCAUACACAAGACGGCUGUGUGUGGUAGCGUCAUAGUAGGAGUCGUCACGAACCAAGGCGCUCCGCCAGAGACCAACCGAGAA
-1.82

// same read-out, input: 11.15 (ssRNA, 2'-NH2 all C and U) RNA: GGGAAAAGCGAAUCAUACACAAGACUCGGCGGGAACGAAAGUGUCAUGGUAGCAAGUCCAAUGGUGGACUCUGCUCCGCCAGAGACCAACCGAGAA
-1.27

// same read-out, input: 6.23 (ssRNA, 2'-NH2 all C and U) RNA: GGGAAAAGCGAAUCAUACACAAGACUCGGCGGGAAUCGAAAGUGUACUGAAUUAGAACGGUGGGCCUGCUCAUCGUGCUCCGCCAGAGACCAACCGAGAA
-0.08

// same read-out, input: 11.8 (ssRNA, 2'-NH2 all C and U) RNA: GGGAAAAGCGAAUCAUACACAAGAAUGGUUGGCCUGGGCGCAGGCUUCGAAGACUCGGCGGGAACGGGAAUGGCUCCGCCAGAGACCAACCGAGAA
-2.04

// same read-out, input: 11.19 (ssRNA, 2'-NH2 all C and U) RNA: GGGAAAAGCGAAUCAUACACAAGAAAGGGAUGGGAUUGGGACGAGCGGCCAAGACUCGGCGGGAACGAAGGGUGCUCCGCCAGAGACCAACCGAGAA
-1.66

// same read-out, input: 11.26 (ssRNA, 2'-NH2 all C and U) RNA: GGGAAAAGCGAAUCAUACACAAGAUUGGGCAGGCAGAGCGAGACCGGGGGCUCGGCGGGAACGGAACAGGAAUGCUCCGCCAGAGACCAACCGAGAA
-1.42

// same read-out, input: 11.4 (ssRNA, 2'-NH2 all C and U) RNA: GGGAAAAGCGAAUCAUACACAAGACAGGCACUGAAAACUCGGCGGGAACGAAAGUAGUGCCGACUCAGACGCGUGCUCCGCCAGAGACCAACCGAGAA
-1.49
